assay: amyloid nucleation score (Sup35N fusion, yeast selection) (log enrichment); library NNK2; higher = more nucleation; inactive = no reads after selection;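 also: zero at mode of non-aggregating sequences after 7 days selection at 30°C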
Use True when the recorded amyloid nucleation score is no lower than 0.3; use False when it is lower.

- substance: "YGLGKTVFTTDGPGMLNGQA"
  group_label: "True"
- substance: "PAVSYFFITFYVIVRFRLAE"
  group_label: "True"
- substance: "ILYGVLTPYFHAVI"
  group_label: "False"
- substance: "RWIVRDSFESWFMVLD"
  group_label: "False"
- substance: "PASTREDGWFYCAHSVVSSQ"
  group_label: "True"

Task item: Determine whether this substance has amyloid nucleation score no lower than 0.3: `SGQKFN`
Reply: False

Task item: Could you verify whether the entry `GALRGGVTRLQILRCFFYFW` shows amyloid nucleation score of no less than 0.3?
Reply: True

Task item: Form field: amyloid nucleation score at least 0.3? Entry: `ILNLLLVCLRIFDGLYLTRY`
Reply: False

Task item: Given the entry `TVFDRNMDTGIMCIVMSWDN` , answer whether its amyloid nucleation score meets or surpasses 0.3.
Reply: False
